- experiment: in vitro
- settings: human, hela cells, % viability
observation.type: viability at 28.5 h, 10 µM (%)

                                   compound  unit_abbreviation  value_measured
0  CN(C)c1cccc(Nc2ccc(-c3cccc(C(=O)O)c3)cn2)c1                  %             101
1  CC(C)C(=O)Nc1ccc2c(-c3ccc4c(c3)CCO4)ccnc2n1                  %            87.7
2  COc1cc(C2Nc3ccccc3-c3nc(SC)nnc3O2)ccc1OCC(=O)O (stereo not drawn)                  %            94.3
3  CCCN1CC(NS(=O)(=O)c2cc(OC)c(Cl)cc2OC)CC1=O (stereo not drawn)                  %            96.7
4                  CCOc1cc(/C=N/O)c(Br)cc1O                  %            87.4
5  CC[C@@H](Cn1nc(-c2cccs2)ccc1=O)NC(=O)c1ccco1                  %            94.7
6            O=S(=O)(c1cccs1)N1CCc2ccccc2C1                  %             113
7  Cc1cc(C)n(CC(=O)N2CCC(c3cc4cccnc4[nH]3)CC2)n1                  %            91.3
8  CC(C)c1ccc(N2C(=O)N[C@@H]3CCN(C(=O)c4cccs4)[C@@H]3C2=O)cc1                  %            90.7

----------
Documented viability at 28.5 h, 10 µM across a set of compounds
- experiment: in vitro
- settings: human, hela cells, % viability
observation.type: viability at 28.5 h, 10 µM

In [3]: df
Out[3]:
                                    compound  value_measured
 0  Cc1cc(Br)c2c(c1)C(O)(N1CCCCC1C)C(=O)N2 (stereo not shown)           97.9%
 1          COc1cccc(OCCCCCc2c(C)n[nH]c2C)c1            104%
 2  CCCc1c(C(=O)NCC(C)(C)CN(C)C)cnn1-c1cc(Cl)cc(Cl)c1           94.3%
 3  O=C(CNS(=O)(=O)c1cc(F)c(Br)cc1F)N1CCOCC1            107%
 4  COc1cccc(OCC(=O)NCC(c2cccs2)N2CCOCC2)c1 (stereo not shown)           91.6%
 5    C=CCN(c1ccccc1)S(=O)(=O)c1ccc(Br)cc1CC           95.8%
 6  O=C1OCCN1S(=O)(=O)c1ccc(CN2CCCN(Cc3ccc(S(=O)(=O)N4CCOC4=O)cc3)CC2)cc1           87.1%
 7  Nc1ncnc2c1ncn2[C@H]1C[C@@H](O)[C@@H](CO)O1           94.9%
 8     Cc1csc(-c2cn3ccnc3c(N(C)CCN(C)C)n2)c1           96.3%
 9         Nc1cc(=O)[nH]c(=O)n1Cc1ccc(Cl)cc1            112%
10  CC(C)(C)NC(=O)COc1ccc(CNCc2ccc(C(=O)O)cc2)cc1           78.1%
11  CS(=O)(=O)c1ccc(-n2cc(CN3CCC(Sc4ccccc4)CC3)nn2)cc1            101%
12          COCCN(Cc1cnn(C)c1)C(=O)Cc1ccccn1            112%
13            Nc1nc2ccc(-c3nc4ccccc4o3)cc2s1           57.4%
14  O=C(CSCc1ccc(Cl)cc1)Nc1ccc(S(=O)(=O)N2CCCCCC2)cc1            112%
15  O=C(O)C1C2CCC(O2)C1C(=O)Nc1ccc2c(c1)OCCO2 (stereo not shown)            103%
16  COc1ccc(OC)c(NC(=O)CSc2nnc(-c3ccncc3)s2)c1           97.2%
17  O=C1/C(=N\Nc2ccc([N+](=O)[O-])cc2[N+](=O)[O-])c2cc(Br)ccc2N1CN1CCCCC1            110%
18  CCOC(=O)C1CCN(S(=O)(=O)c2ccc(OC)c(C)c2C)CC1           96.1%

----------
- experiment: in vitro
- settings: human, hela cells, % viability
Below, each of the compounds is paired with its reported viability at 28.5 h, 10 µM value.
observation.type: viability at 28.5 h, 10 µM (%)

                                    compound            observation_type  value_measured
 0  O=c1n(-c2ccccc2)c(=O)n(Cc2ccccn2)n1Cc1ccccn1 [CBK266630]  viability at 28.5 h, 10 µM            98.7
 1  CCc1ccc(NC(=N)Nc2nc(CSc3ncccn3)cc(=O)[nH]2)cc1 [CBK268836]  viability at 28.5 h, 10 µM            88.1
 2  O=C(O)CCN1C(=O)C(=Cc2ccc(OCc3ccccc3)cc2)c2ccccc2C1=O [CBK297552]  viability at 28.5 h, 10 µM             105
 3         c1cncc(CNCc2ccoc2)c1 [CBK001744C]  viability at 28.5 h, 10 µM            88.1
 4  O=C(COc1ccccc1)Nc1ccc2n(c1=O)C[C@H]1C[C@@H]2CN(C(=O)c2ccccc2)C1 [CBK289079]  viability at 28.5 h, 10 µM            76.6
 5  Cc1ccc(C=C(c2ccccc2)c2nc3sc(C(=O)O)c(C)c3c(=O)[nH]2)s1 [CBK295638]  viability at 28.5 h, 10 µM             100
 6  O=C(Nc1ccncc1)c1c(O)c2ccccc2[nH]c1=O [CBK288017]  viability at 28.5 h, 10 µM             112
 7  O=C(NCc1ccc(C(F)(F)F)nc1)OCCc1ccncc1 [CBK200132]  viability at 28.5 h, 10 µM            93.2
 8  CCN1CCc2cc(-c3cncn3CCCn3nc(C)cc3C)ccc21 [CBK281572]  viability at 28.5 h, 10 µM             104
 9  O=S(=O)(Nc1nccnc1N1CCN(c2ccccc2)CC1)c1ccc(F)cc1 [CBK048706]  viability at 28.5 h, 10 µM            94.2
10  CCc1[nH]c2ccc(C(=O)NC3CCCOC3)cc2c1C (stereo not drawn) [CBK283247]  viability at 28.5 h, 10 µM            95.9
11  c1ccc(N2CCN(C3c4ccccc4Sc4ccccc43)CC2)cc1 [CBK066894]  viability at 28.5 h, 10 µM            92.1
12  COc1ccc(S(=O)(=O)NC[C@H]2C[C@@H]3CC[N@]2C[C@@H]3CN2CCSCC2)cc1 [CBK288769]  viability at 28.5 h, 10 µM            86.6
13  O=C(c1ccc2ccccc2n1)N1CCc2ccccc21 [CBK200404]  viability at 28.5 h, 10 µM              94
14  CCCN(CCC)C(=O)c1ccc(NC(=O)CC)cc1 [CBK304391]  viability at 28.5 h, 10 µM            91.8
15  COc1cccc(C(=O)Nc2ccc(O)c(C)c2)c1 [CBK264413]  viability at 28.5 h, 10 µM            88.1
16  COc1ccc(NC(=O)CSc2nc(N)cc(O)n2)c([N+](=O)[O-])c1 [CBK267904]  viability at 28.5 h, 10 µM             101
17  CC(C)NCC(O)Cn1c2c(c3ccccc31)CCc1c-2cnn1-c1ccccc1 (stereo not drawn) [CBK261107]  viability at 28.5 h, 10 µM            99.6
18  CCN(CC)CCN1CCN(c2cc(-c3cc(C(F)(F)F)cc(C(F)(F)F)c3)ncn2)CC1 [CBK091195]  viability at 28.5 h, 10 µM              94
19    O=C(NCCCO)c1ccc(/C=N/O)nc1 [CBK264560]  viability at 28.5 h, 10 µM            97.7
20  CCOc1ccccc1NC(=O)CN(c1cc(C(F)(F)F)ccc1Cl)S(C)(=O)=O [CBK264627]  viability at 28.5 h, 10 µM            84.7
21  Cc1ccc2oc(-c3ccc(O)cc3)nc2c1 [CBK093878]  viability at 28.5 h, 10 µM            96.2
22  CCOc1nc(=O)c(C)cn1C1CC(O)C(CO)O1 (stereo not drawn) [CBK201334]  viability at 28.5 h, 10 µM            96.5
23  CCOC(=O)CN(Cc1ccccc1)S(=O)(=O)c1ccc(C(C)C)cc1 [CBK043404]  viability at 28.5 h, 10 µM             103
24  NNC(=O)c1ccc(Oc2ccc(C(=O)NN)cc2)cc1 [CBK260995]  viability at 28.5 h, 10 µM            85.7
25  COc1ccc(OC(=O)c2ccc3nonc3c2)cc1 [CBK083571]  viability at 28.5 h, 10 µM            97.9
26  Cc1nc2ccccc2c(C)c1C(=O)OCc1nc(N)nc(N(C)C)n1 [CBK295627]  viability at 28.5 h, 10 µM            70.6
27  Cc1ccc(C(=O)NCC(=O)NCC(=O)O)cc1 [CBK262170]  viability at 28.5 h, 10 µM             103
28  Cc1ccc(S(=O)(=O)N(CCO)CC2CC2)c(Cl)c1 [CBK304885]  viability at 28.5 h, 10 µM              75
29  Fc1ccc2nc(Nc3nnc(-c4ccco4)o3)sc2c1 [CBK287488]  viability at 28.5 h, 10 µM            94.5
30  c1cn2c(-c3ccoc3)cnc(N3CCOCC3)c2n1 [CBK091292]  viability at 28.5 h, 10 µM            88.7
31  CCN1CCCC1CN(Cc1cccs1)Cc1cnc(C)n1C (stereo not drawn) [CBK282603]  viability at 28.5 h, 10 µM            91.5
32  OC1CC(c2cc(F)ccc2F)N(CCc2ccncc2)C1 (stereo not drawn) [CBK305106]  viability at 28.5 h, 10 µM            87.2
33  COc1ncc(-c2cc(N3CCN(c4ccccn4)CC3)ncn2)c(OC)n1 [CBK037707]  viability at 28.5 h, 10 µM             102
34  Cc1nc(C2CCCN(C(=O)c3cccnc3)C2)c2sccn12 (stereo not drawn) [CBK285233]  viability at 28.5 h, 10 µM              93
35  OCCNc1nc(Cl)nc(Nc2nc(-c3ccccc3)cs2)n1 [CBK261381]  viability at 28.5 h, 10 µM            86.2
36  COC(=O)c1cc(NC(=O)OC(C)(C)C)ccc1O [CBK016529]  viability at 28.5 h, 10 µM              86
37  COC(=O)N1CCC(C(=O)NC(c2ccccc2)c2nc(OC)cc(OC)n2)CC1 (stereo not drawn) [CBK059651]  viability at 28.5 h, 10 µM            90.6
38  O=C1COc2ccccc2CCCC[C@@H]2CN(C(=O)CCN3CCCC3=O)CC[C@H]2N1 [CBK292044]  viability at 28.5 h, 10 µM            91.8
